Recorded measurements of IC50, one per entry
# TEST TARGET: binding of HIV Rev protein to the HIV RRE (Human immunodeficiency virus type 1 group M subtype B)
# Construct: made in house; host or cells: E. coli
# Sequence (P04618 whole entry, looked up): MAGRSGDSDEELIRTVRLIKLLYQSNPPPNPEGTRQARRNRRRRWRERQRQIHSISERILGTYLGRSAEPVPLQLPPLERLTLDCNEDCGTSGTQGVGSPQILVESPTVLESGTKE
# ASSAY SUMMARY: Rev-RRE nitrocellulose filter-binding assay
# RECORDED CONDITIONS: Table 2, 2,5-Bis(3-amidinophenyl)furans; read-out: IC50 against Rev/RRE binding
MEASURED PROPERTY: IC50

[[record]]
compound = "c1cc(C2=NCCN2)cc(-c2ccc(-c3cccc(C4=NCCN4)c3)o2)c1 [Example 19, 2,5-Bis(3-imidazolinophenyl)furan]"
measured_property = "IC50"
test_result = "4 µM"

[[record]]
compound = "CN(C)CCCCNC(=N)c1cccc(-c2ccc(-c3cccc(C(=N)NCCCCN(C)C)c3)o2)c1 [Example 17]"
measured_property = "IC50"
test_result = "1.7 µM"

[[record]]
compound = "CN(C)CCCCCCNC(=N)c1cccc(-c2ccc(-c3cccc(C(=N)NCCCCCCN(C)C)c3)o2)c1 [Example 18]"
measured_property = "IC50"
test_result = "3.9 µM"

[[record]]
compound = "CCN(CC)CCCNC(=N)c1cccc(-c2ccc(-c3cccc(C(=N)NCCCN(CC)CC)c3)o2)c1 [Example 16]"
measured_property = "IC50"
test_result = "0.75 µM"

